- System: Plasmopara viticola
- Assay method text: Test I: grape downy mildew, spray on grape seedlings after inoculation, visual disease rating
- Particulars: 200 ppm; 100 = 100 % disease control, 0 = no disease control relative to controls
Quick reference: Test I disease control rating of the listed items.
# unit: % | format: bare number

Molecule | Test I disease control rating, %
CN1OC(C)(c2cccnc2)CC1c1ccc(Oc2ccccc2)cc1 (racemic) [Compound 9] | 0
CN1OC(C)(c2cccnc2)CC1c1ccc(Oc2ccccc2)cc1 (racemic) [Compound 10] | 0
CN1OC(C)(c2cccnc2)CC1c1ccc(I)cc1 (racemic) [Compound 16] | 0
CN1OC(C)(c2cccnc2)CC1c1ccc(C(C)(C)C)cc1 (racemic) [Compound 8] | 0
CN1OC(C)(c2cccnc2)CC1c1ccc(Oc2ccc(F)cc2)cc1 (racemic) [Compound 19] | 0
CN1OC(C)(c2cccnc2)CC1c1ccc(C(C)(C)C)cc1 (racemic) [Compound 7] | 0
CN1O[C@@](C)(c2cccnc2)C[C@@H]1c1ccc(Cl)cc1 (relative stereo) | 17
CN1OC(C)(c2cccnc2)CC1c1ccc(Cl)c(Cl)c1 (centres unmarked) [Compound 5] | 0
CN1OC(C)(c2cccnc2)CC1c1ccc(Cl)c(Cl)c1 (centres unmarked) [Compound 6] | 17
CN1OC(C)(c2cccnc2)CC1c1ccc(Oc2ccc(F)cc2)cc1 (racemic) [Compound 20] | 0

Request - read-out Test I disease control rating | tested on Plasmopara viticola | molecule Cc1cccc(-c2ccc(C3CC(c4cccnc4)(C(F)(F)F)ON3C)cc2)c1C (racemic) [Compound 31]
0

Request - read-out Test I disease control rating | tested on Plasmopara viticola | molecule CN1OC(C)(c2cccnc2)CC1c1ccc(-c2ccccc2)cc1 (racemic) [Compound 12]
0

Request - read-out Test I disease control rating | tested on Plasmopara viticola | molecule CN1OC(c2cccnc2)(C(F)(F)F)CC1c1ccc(-c2ccccc2)cc1 (racemic) [Compound 23]
0

Request - read-out Test I disease control rating | tested on Plasmopara viticola | molecule CN1OC(C)(c2cccnc2)CC1c1ccc(-c2ccccc2)cc1 (racemic) [Compound 11]
0

Request - read-out Test I disease control rating | tested on Plasmopara viticola | molecule CN1OC(c2cccnc2)(C(F)(F)F)CC1c1ccc(-c2ccccc2)cc1 (racemic) [Compound 24]
0

* * *

Quick reference: Test C disease control rating of the listed items.
- System: Septoria nodorum
- Assay method text: Test C: wheat glume blotch, preventive spray on wheat seedlings, visual disease rating
- Particulars: 200 ppm; 100 = 100 % disease control, 0 = no disease control relative to controls
# unit: % | format: bare number

Completed entries (count: 5):
Compound | Test C disease control rating [%]
CN1OC(C)(c2cccnc2)CC1c1ccc(C(C)(C)C)cc1 (racemic) [Compound 7] | 69
CN1OC(C)(c2cccnc2)CC1c1cccc(Br)c1 (stereo not drawn) [Compound 64] | 0
COC(=O)c1ccc(C2CC(C)(c3cccnc3)ON2C)cc1 (stereo not drawn) [Compound 39] | 51
CN1OC(C)(c2cccnc2)CC1c1ccc(Br)cc1Br (stereo not drawn) [Compound 83] | 81
CN1OC(C)(c2cccnc2)CC1c1cccc2c1OC(F)(F)O2 (mixture of isomers) [Compound 89] | 0

For the next question, use this compound.
// returns reported Test C disease control rating for input CN1OC(C)(c2cccnc2)CC1c1ccc(-c2ccnn2CC(F)(F)F)cc1 (mixture of isomers) [Compound 63]
0

* * *

- Test system: Septoria nodorum
- Assay method text: Test C: wheat glume blotch, preventive spray on wheat seedlings, visual disease rating
- Particulars: 200 ppm; 100 = 100 % disease control, 0 = no disease control relative to controls
Metric name: Test C disease control rating (%)
# unit: % | format: bare number

Compound | Metric name | Measured
CN1OC(C)(c2cccnc2)CC1c1cccc(I)c1 (mixture of isomers) | Test C disease control rating | 0
CN1OC(c2cccnc2)(C(F)(F)F)CC1c1ccc(-c2ccccc2)cc1 (racemic) [Compound 23] | Test C disease control rating | 97
COc1cc(Br)ccc1C1CC(C)(c2cccnc2)ON1C (stereo not drawn) [Compound 85] | Test C disease control rating | 64

Request - read-out Test C disease control rating | tested on Septoria nodorum | compound Cc1ccccc1C1CC(C)(c2cccnc2)ON1C (mixture of isomers)
0

Request - read-out Test C disease control rating | tested on Septoria nodorum | compound CN1OC(C)(c2cccnc2)CC1c1ccc(Oc2ccccc2)cc1 (racemic) [Compound 9]
95

Request - read-out Test C disease control rating | tested on Septoria nodorum | compound CN1OC(C)(c2cccnc2)CC1c1ccccc1Cl (stereo not drawn) [Compound 93]
0

Request - read-out Test C disease control rating | tested on Septoria nodorum | compound CN1OC(C)(c2cccnc2)CC1c1ccc(Br)c(F)c1 (stereo not drawn)
86

Request - read-out Test C disease control rating | tested on Septoria nodorum | compound CN1OC(c2cccnc2)(C(F)(F)F)CC1c1ccc(Br)cc1 (racemic)
92

Request - read-out Test C disease control rating | tested on Septoria nodorum | compound CN1OC(C)(c2cccnc2)CC1c1ccc(I)cc1 (racemic) [Compound 15]
99
